assay: method code SF-HPLC, from DOI: 10.1002/(sici)1521-3838(199911)18:5<482::aid-qsar482>3.0.co;2-r; settings: pH 6.4
Flag rule - logD less than 4 flags label 1; the remaining entries get label 0.

* c1ccc2c(Nc3nnc(Cn4ccc5ccccc54)s3)cccc2c1 | label 0
* S=c1[nH]nc(Cn2ccc3ccccc32)n1-c1ccccc1 | label 1
* S=c1[nH]nc(Cn2ccc3cc(Br)ccc32)n1-c1cccc2ccccc12 | label 1

Lab note: next compound to report on.
Task: I'd appreciate it if you could check whether `Cc1[nH]c2ccccc2c1Cc1n[nH]c(=S)n1-c1ccccc1` has logD smaller than 4.
Output: label 1
